- Tested on: senescent IMR90 ER:RAS cells (4-OHT-induced)
- assay summary: Nuclei count (Hoechst, high content imaging) senolytic assay, oncogene-induced senescence (OIS) model, senescent cells
- Type: cell-based, human
- experimental context: Homo sapiens, IMR-90, 72 h, Senescent, log (dose) [M] -7.33, 72 h, mean n=3 (Fig 3C); read-out: Mean % Cell Survival
Counter-ions that a name gives are not always drawn.
Give viability at 0.04677 µM for every item shown.
Answer format: numeric, % implied, no suffix.

Qu. Recall the recorded viability at 0.04677 µM for O=c1cc(-c2ccc(O)cc2)oc2cc(O)c(O)c(O)c12 [Scutellarein, scutellarein] with senescent IMR90 ER:RAS cells (4-OHT-induced) and state it.
Ans. 122

Qu. CO[C@H]1C[C@H](O[C@H]2CC[C@@]3(C)[C@H](CC[C@@H]4[C@@H]3CC[C@]3(C)[C@@H](C5=CC(=O)OC5)[C@@H](OC(C)=O)C[C@]43O)C2)O[C@@H](C)[C@@H]1O [Oleandrin, oleandrin] ?
Ans. 6.59

Qu. COc1cc(/C=C/C(=O)O[C@H]2CC[C@]34C[C@]35CC[C@]3(C)[C@@H]([C@H](C)CCC=C(C)C)CC[C@@]3(C)[C@@H]5CC[C@H]4C2(C)C)ccc1O [Gamma oryzanol, gamma oryzanol] ?
Ans. 151

Qu. CO[C@H]1C[C@@H]2CC[C@@H](C)[C@@](O)(O2)C(=O)C(=O)N2CCCC[C@H]2C(=O)O[C@H]([C@H](C)C[C@@H]2CC[C@@H](O)[C@H](OC)C2)CC(=O)[C@H](C)/C=C(\C)[C@@H](O)[C@@H](OC)C(=O)[C@H](C)C[C@H](C)/C=C/C=C/C=C/1C [Rapamycin, rapamycin, reference compound] ?
Ans. 105

Qu. O=c1c(O)c(-c2ccc(O)cc2O)oc2cc(O)cc(O)c12 [Morin, morin] ?
Ans. 95.3

Qu. CC[C@]1(O)C[C@@H]2CN(CCc3c([nH]c4ccccc34)[C@@](C(=O)OC)(c3cc4c(cc3OC)N(C)[C@H]3[C@@](O)(C(=O)OC)[C@H](OC(C)=O)[C@]5(CC)C=CCN6CC[C@]43[C@@H]65)C2)C1 [Vinblastine sulfate, vinblastine sulfate, reference compound] ?
Ans. 108

Qu. CO[C@H]1C[C@@H]2CC[C@@H](C)[C@@](O)(O2)C(=O)C(=O)N2CCCC[C@H]2C(=O)O[C@H]([C@H](C)C[C@@H]2CC[C@H](n3cnnn3)[C@H](OC)C2)CC(=O)[C@H](C)/C=C(\C)[C@@H](O)[C@@H](OC)C(=O)[C@H](C)C[C@H](C)/C=C/C=C/C=C/1C [Zotarolimus, zotarolimus, reference compound] ?
Ans. 106

Qu. C[C@@H]1O[C@@H](O[C@H]2C[C@@H](O)[C@]3(CO)[C@H]4[C@H](O)C[C@]5(C)[C@@H](C6=CC(=O)OC6)CC[C@]5(O)[C@@H]4CC[C@]3(O)C2)[C@H](O)[C@H](O)[C@H]1O [Ouabain, ouabain, reference compound] ?
Ans. 11.8

Qu. CO[C@H]1C[C@@H]2CC[C@@H](C)[C@@](O)(O2)C(=O)C(=O)N2CCCC[C@H]2C(=O)O[C@H]([C@H](C)C[C@@H]2CC[C@@H](OCCO)[C@H](OC)C2)CC(=O)[C@H](C)/C=C(\C)[C@@H](O)[C@@H](OC)C(=O)[C@H](C)C[C@H](C)/C=C/C=C/C=C/1C [Everolimus, everolimus, reference compound] ?
Ans. 88.2

Qu. COC[C@H]1C[C@@H](c2nc(-c3ccc4c(c3)COc3cc5c(ccc6nc([C@@H]7CC[C@H](C)N7C(=O)[C@@H](NC(=O)OC)C(C)C)[nH]c65)cc3-4)c[nH]2)N(C(=O)[C@H](NC(=O)OC)c2ccccc2)C1 [Velpatasvir, velpatasvir, reference compound] ?
Ans. 91.5

Qu. COc1cc(O)c2c(=O)cc(-c3ccc(OC)c(-c4c(O)cc(O)c5c(=O)cc(-c6ccc(O)cc6)oc45)c3)oc2c1 [Ginkgetin, ginkgetin] ?
Ans. 113

Qu. CO[C@H]1C[C@@H]2CC[C@@H](C)[C@@](O)(O2)C(=O)C(=O)N2CCCC[C@H]2C(=O)O[C@H]([C@H](C)C[C@@H]2CC[C@@H](OP(C)(C)=O)[C@H](OC)C2)CC(=O)[C@H](C)/C=C(\C)[C@@H](O)[C@@H](OC)C(=O)[C@H](C)C[C@H](C)/C=C/C=C/C=C/1C [Ridaforolimus, ridaforolimus, reference compound] ?
Ans. 128

Qu. O=c1c(O)c(-c2ccc(O)cc2)oc2c(O)c(O)cc(O)c12 [Herbacetin, herbacetin] ?
Ans. 90.5

Qu. Cc1cnc(C(=O)N[C@H]2CCCCC/C=C\[C@@H]3C[C@@]3(C(=O)NS(=O)(=O)C3CC3)NC(=O)[C@@H]3C[C@@H](Oc4nc5ccccc5c5ccccc45)CN3C2=O)cn1 [Paritaprevir, paritaprevir, reference compound] ?
Ans. 84.7

Qu. Cc1cc2c(C(C)C)c(O)c(O)c(C=O)c2c(O)c1-c1c(C)cc2c(C(C)C)c(O)c(O)c(C=O)c2c1O [Gossypol, gossypol] ?
Ans. 120

Qu. Cc1c(-c2c(F)cc(C(N)=O)c3[nH]c4c(c23)CC[C@H](C(C)(C)O)C4)cccc1-n1c(=O)c2cccc(F)c2n(C)c1=O [BMS 986142] ?
Ans. 109

Qu. O=c1oc2c(O)c(O)cc3c(=O)oc4c(O)c(O)cc1c4c23 [Ellagic acid, ellagic acid] ?
Ans. 122
